FYI, the data here is from PubChem BioAssay AID1347075.

# experiment: qHTS assay for MDR1-selective chemotherapeutics: Primary screen using the parental adenocarcinoma cell KB-3-1; further: nearly all actives have a fitted effect of over 60% in size; further: potency means the concentration at half of the fitted maximal effect
# testParameters: KB-3-1 viability, CellTiter-Glo ATP luminescence, 72 h; series mostly up to 46.1 µM
The campaign covered roughly 400,000 compounds. About 5,500 (1.4%) were called active. Roughly 9% stayed inconclusive and do not appear here. The sample holds actives, similar compounds and a random draw of the others, so the mix is not that of the screen.
recordedEndpoint: Potency

The examples below pair each entry with its known result.
O=C(Oc1ccc(-c2nc(-c3ccccn3)no2)cc1)c1ccccc1; 7.31 µM (active)
O=C1CCc2cc(S(=O)(=O)Nc3cccc(Oc4ccccc4)c3)ccc2N1; inactive
COc1ccc(N(C)C(=O)C2CCN(S(=O)(=O)c3cc(Br)cc4c3N(C(C)=O)CC4)CC2)cc1; inactive
O=S(=O)(NCC(c1ccco1)N1CCOCC1)c1cc(F)ccc1F (configuration not stated); inactive
CC(=NNC(=O)c1ccc2nc[nH]c2c1)c1ccc(Br)cc1; inactive
O=C(Nc1ncc([N+](=O)[O-])s1)C1COc2ccccc2O1 (configuration not stated); 16.4 µM (active)
O=C(Nc1cc(S(=O)(=O)N2CCCCC2)ccc1Cl)C1COc2ccccc2O1 (configuration not stated); inactive
CC1(C(=O)Nc2cccnc2)Cc2c(-c3ccccc3)ccnc2O1 (configuration not stated); inactive

Now look at this one.
Return reported Potency. Input compound: O=C(CCNC(=O)c1ccc(Cl)cc1)NC1CCCc2ccccc21 (configuration not stated)
7.31 µM (active)

----------
# experiment: qHTS assay for MDR1-selective chemotherapeutics: Primary screen using the parental adenocarcinoma cell KB-3-1; further: nearly all actives have a fitted effect of over 60% in size
# testParameters: KB-3-1 viability, CellTiter-Glo ATP luminescence, 72 h; series mostly up to 46.1 µM
Screen size: about 400,000 compounds; about 5,500 (1.4%) were called active. Not shown: some 9% with an inconclusive outcome. The call rests on the fitted dose curve; in most records, active means well fitted cell-killing curve with a large enough effect; inconclusive means small, poorly fitted or top-dose-only effect, or effect the other way; inactive means flat fitted curve, though single readings scatter. Shown is part of a subset that was picked to be rich in actives.
# output must be one of active, inactive

Give the logged outcome of this assay for the following compound: O=C(NCc1ccc2c(c1)OCO2)c1cc([N+](=O)[O-])ccc1N1CCOCC1
active

Give the logged outcome of this assay for the following compound: COC(=O)C(C)Oc1ccc2c(-c3cccc([N+](=O)[O-])c3)cc(=O)oc2c1 (stereo not given)
inactive

Give the logged outcome of this assay for the following compound: CC(Nc1nc(N2CCCC2)nc2ccccc12)c1ccccc1 (stereo not given)
active

Give the logged outcome of this assay for the following compound: CCC(=O)Nc1c(C(=O)N2CCN(c3ccc(F)cc3)CC2)oc2ccccc12
inactive

Give the logged outcome of this assay for the following compound: O=C(c1cnn2c1NC(=C1CC1)C=C2C(F)F)N1CCc2ccccc2C1
inactive

Give the logged outcome of this assay for the following compound: COc1ccc(-c2c(C)cc3oc(=O)cc(-c4ccccc4)c3c2C)cc1C=O
inactive

Give the logged outcome of this assay for the following compound: CC1CCN(c2ccc(C(=O)NCc3ccc4c(c3)OCO4)cc2[N+](=O)[O-])CC1
inactive

Give the logged outcome of this assay for the following compound: COc1cc(OC)c2c(-c3cccc(-c4cccc(N)c4)c3)cc(=O)oc2c1
active

Give the logged outcome of this assay for the following compound: CCOC(=O)C1CCCN(S(=O)(=O)c2cc(-c3cc(C)no3)ccc2OC)C1 (stereo not given)
inactive

Give the logged outcome of this assay for the following compound: O=C(Cc1ccc([N+](=O)[O-])cc1)NCCc1ccc2c(c1)OCO2
inactive

----------
# experiment: qHTS assay for MDR1-selective chemotherapeutics: Primary screen using the parental adenocarcinoma cell KB-3-1; further: nearly all actives have a fitted effect of over 60% in size; further: potency means the concentration at half of the fitted maximal effect
# testParameters: KB-3-1 viability, CellTiter-Glo ATP luminescence, 72 h; series mostly up to 46.1 µM
# Description: A prime difficulty in effectively treating cancer is the development of cellular resistance to multiple structurally unrelated anticancer drugs, a phenomenon known as multidrug resistance (MDR). […] Numerous strategies to overcome P-gp-mediated MDR have been explored, including the design of drugs that evade recognition and efflux, and development of inhibitors to block efflux and restore drug accumulation. […]
Screen size: about 400,000 compounds; about 5,500 (1.4%) were called active. Not shown: some 9% with an inconclusive outcome. The entries come from a sample that favours actives as a whole.
recordedEndpoint: Potency

Cc1cccc(Cn2c(SCc3ccc(C(=O)N4CCC(C)CC4)cc3)nc3ccncc32)c1; 23.1 µM (active)
CSc1nc(N(C)NC(=O)c2cccc(C)c2)c2ccccc2n1; 0.184 µM (active)
COc1ccc(C(=O)c2oc3ccccc3c2NC(=O)COc2cccc(C)c2)cc1; inactive
CC1=C(C(=O)OCc2ccc(C)cc2)C(c2c(Cl)cccc2Cl)CC(=O)N1 (stereo not drawn); inactive

Now look at this one.
Return reported Potency. Input compound: Oc1c(C(c2ccc(F)cc2)N2CCN(Cc3ccccc3)CC2)sc2nc(-c3ccco3)nn12 (stereo not drawn)
inactive

----------
# experiment: qHTS assay for MDR1-selective chemotherapeutics: Primary screen using the parental adenocarcinoma cell KB-3-1; further: nearly all actives have a fitted effect of over 60% in size
# testParameters: KB-3-1 viability, CellTiter-Glo ATP luminescence, 72 h; series mostly up to 46.1 µM
Out of some 400,000 compounds screened, about 5,500 (1.4%) were called active. Roughly 9% stayed inconclusive and do not appear here. The entries come from a sample that favours actives as a whole.
recordedEndpoint: outcome

COC(=O)c1sc2ncccc2c1-n1c(C)ccc1C; inactive
O=C1N(Cc2ccccc2)c2ccc(Cl)cc2C1(O)c1c[nH]c2ccccc12 (stereo not drawn); inactive
COc1ccc(Cn2cc(C(=O)c3ccc(C)cc3)c(=O)c3cc(OC)c(OC)cc32)cc1; inactive

----------
# experiment: qHTS assay for MDR1-selective chemotherapeutics: Primary screen using the parental adenocarcinoma cell KB-3-1; further: nearly all actives have a fitted effect of over 60% in size; further: potency means the concentration at half of the fitted maximal effect
# testParameters: KB-3-1 viability, CellTiter-Glo ATP luminescence, 72 h; series mostly up to 46.1 µM
The campaign covered roughly 400,000 compounds. About 5,500 (1.4%) were called active. Another 9% or so got no clear call; they are omitted. This excerpt belongs to a sample that is enriched for actives.
recordedEndpoint: Potency

Cc1ccccc1CNC(=O)c1cccc(NC(=O)c2nsc3ccccc23)c1; inactive
O=C(CCc1ccccc1)NCc1ccc2c(c1)CCN2C(=O)c1ccccc1; inactive
CCOc1ccc(C(=O)c2cn(Cc3ccc(F)cc3)c3ccc(F)cc3c2=O)cc1; inactive
COc1cc(OC)c(N(C)C(=O)c2cc3c(=O)oc4ccccc4c3s2)cc1Cl; inactive
Cc1ccc(C(=O)N2CCCC(c3ccccc3)=N2)cc1; inactive

Return reported Potency. Input compound: CCOC(=O)c1ccc(N2C(=O)c3n[nH]c(-c4ccco4)c3C2c2ccc(O)cc2)cc1 (stereo unspecified)
inactive

Return reported Potency. Input compound: O=C(NCc1ccc(Cl)cc1)c1ccc2c(c1)nnn2C1CCCC1
inactive

Return reported Potency. Input compound: CCOC(=O)c1c(C)oc2nc(C)nc(N(CC(C)C)CC(C)C)c12
inactive

----------
# experiment: qHTS assay for MDR1-selective chemotherapeutics: Primary screen using the parental adenocarcinoma cell KB-3-1; further: nearly all actives have a fitted effect of over 60% in size
# testParameters: KB-3-1 viability, CellTiter-Glo ATP luminescence, 72 h; series mostly up to 46.1 µM
Among all 400,000 compounds or so, about 5,500 (1.4%) were called active. About 9% were inconclusive and are not listed. Calls come from the whole dose curve; as a rule, active = well fitted cell-killing curve with a large enough effect; inconclusive = small, poorly fitted or top-dose-only effect, or effect the other way; inactive = flat fitted curve, though single readings scatter. Many of the other results were omitted from the sample, so actives are more common in it than they were.
# output must be one of active, inactive

Give the logged outcome of this assay for the following compound: CC(=O)Nc1ccc(N2CCOCC2)c(C(=O)Nc2cccc(C)c2)c1
inactive

Give the logged outcome of this assay for the following compound: Cc1cc(C)c(NC(=O)CCc2c(C)nc3c(c(C)nn3C(C)(C)C)c2C)c(C)c1
inactive

Give the logged outcome of this assay for the following compound: CCOc1cc(-c2nnc(SCC(=O)NC3CCCC3)nc2-c2ccc(OC)c(OCC)c2)ccc1OC
inactive

Give the logged outcome of this assay for the following compound: COc1cccc(CNC(=O)C2CCC(CNS(=O)(=O)c3cccs3)CC2)c1 (centres undefined)
inactive

Give the logged outcome of this assay for the following compound: N#Cc1ccc(OC2=NS(=O)(=O)c3ccccc32)cc1
inactive

Give the logged outcome of this assay for the following compound: Cc1ccc(CCC(=O)Nc2ncc(Cc3cc(Cl)ccc3Cl)s2)o1
active

Give the logged outcome of this assay for the following compound: O=C1OC(C(=O)Nc2cccc(Br)c2)Cc2ccccc21 (centres undefined)
inactive

Give the logged outcome of this assay for the following compound: CCc1ccc(N(CC)C(=O)CCn2cnc3onc(-c4ccc(F)cc4)c3c2=O)cc1
inactive

Give the logged outcome of this assay for the following compound: CCCOc1ccc(-c2cccc(NS(=O)(=O)c3ccccc3)c2)nn1
inactive

Give the logged outcome of this assay for the following compound: Cc1cccn2c(=O)c3cc(C(=O)NCCN4CCOCC4)c(=N)n(Cc4cccnc4)c3nc12
active

Give the logged outcome of this assay for the following compound: COc1ccc(CCN2C(=O)N(c3cccc(OC)c3)C(=O)C2CC(=O)Nc2ccccc2)cc1 (centres undefined)
inactive

Give the logged outcome of this assay for the following compound: COc1ccc(C2CC(=O)N(Cc3ccccc3C)c3c2c(C)nn3-c2nc(C)cc(C)n2)c(OC)c1 (centres undefined)
inactive

Give the logged outcome of this assay for the following compound: CC(C)c1cc(C(=O)O)n[nH]1
inactive

Give the logged outcome of this assay for the following compound: S=c1[nH]c(=S)c2n[nH]nc2[nH]1
inactive

Give the logged outcome of this assay for the following compound: COc1ccc(S(=O)(=O)c2cn(C)c3cc(N4CCCCC4)c(F)cc3c2=O)cc1
inactive

Give the logged outcome of this assay for the following compound: CC1=CC(C)(C)NC(=S)N1NC(=O)c1ccccc1Cl
inactive

Give the logged outcome of this assay for the following compound: COc1ccc(N2CCN(S(=O)(=O)c3ccc4c(c3)CC(=O)N4)CC2)cc1
inactive

Give the logged outcome of this assay for the following compound: CCN(CC)S(=O)(=O)c1ccc(NC(=O)c2cnc(C)cn2)cc1
inactive

Give the logged outcome of this assay for the following compound: COc1ccc(-c2nn(CC(=O)NC3CCCC3)c3c2cnc2ccc(F)cc23)cc1
inactive

Give the logged outcome of this assay for the following compound: Cc1ccc(NC(=S)N(CCCN2CCCC2)Cc2cccn2Cc2ccc(Cl)cc2)cc1
active

Give the logged outcome of this assay for the following compound: Cc1ccc(S(=O)(=O)N(C)C2(C)CCS(=O)(=O)C2)cc1 (centres undefined)
inactive

Give the logged outcome of this assay for the following compound: Cc1ccc(S(=O)(=O)N2CCN(C)CC2)cc1
inactive

Give the logged outcome of this assay for the following compound: Cc1ccc(C)c(N2C(=O)N(Cc3c(F)cccc3Cl)c3ccccc3S2(=O)=O)c1
inactive

Give the logged outcome of this assay for the following compound: C/C(=N\N)c1c(-c2ccccc2)c2cc(Br)ccc2[nH]c1=O
inactive
